These measurements were taken from patent US7138421B2.

test: Pharmacokinetics in rats after intravenous and peroral administration; format: in vivo; settings: rat, serum, iv, read-out: Half-Life i.v. T1/2 (converted)
# half-life listing for each entry below
Write the number in h without appending the unit.

CC1(C)C(=O)N(c2ccc(C#N)c(C(F)(F)F)c2)C(=S)N1CCCCCCCCN1CCCC1 :: 5.6

QUERY: Give the measured half-life for CC1(C)C(=O)N(c2ccc(C#N)c(C(F)(F)F)c2)C(=S)N1CCCCCCCCN1CCC[C@H]1CO
RESULT: 5.7

* * *

test system: LNCaP cells; assay: Inhibition of the proliferation of LNCaP cells (crystal violet assay); assay type: cell-based, human; conditions: Homo sapiens, LNCaP; 1 μM test substance, compared to cell growth in the presence of 0.1 nmol of R1881; read-out: % Inhibition at 1 μM
Endpoint: inhibition at 1 µM (%)
Write the number in % without appending the unit.

// solved cases for inhibition at 1 µM follow
CC(C)(O)[C@H]1CCCN1CCCCCCCN1C(=S)N(c2ccc(C#N)c(C(F)(F)F)c2)C(=O)C1(C)C [Example 43] :: 113
COC[C@@H]1CCCN1CCCCCCCCCN1C(=S)N(c2ccc(C#N)c(C(F)(F)F)c2)C(=O)C1(C)C [Example 21] :: 94
CC1(C)C(=O)N(c2ccc(C#N)c(C(F)(F)F)c2)C(=S)N1CCCCCN1CCCC1 [Comparison 2, reference compound] :: 38
COC[C@H]1CCCN1CCCCCCCCN1C(=S)N(c2ccc(C#N)c(C(F)(F)F)c2)C(=O)C1(C)C [Example 18] :: 103
CC1(C)C(=O)N(c2ccc(C#N)c(C(F)(F)F)c2)C(=S)N1CCCCCCCN1CCC[C@H]1CO [Example 9] :: 92
CC1(C)C(=O)N(c2ccc(C#N)c(C(F)(F)F)c2)C(=S)N1CCCCCCN1CC[C@H](C(N)=O)C1 [Example 49] :: 110
CC1(C)C(=O)N(c2ccc(C#N)c(C(F)(F)F)c2)C(=S)N1CCCCCCCN1CC[C@H](O)C1 [Example 31] :: 104
CC1(C)C(=O)N(c2ccc(C#N)c(C(F)(F)F)c2)C(=S)N1CCCCCCCN1CCCC1 [Example 4] :: 98

QUERY: Give the measured inhibition at 1 µM for CC1(C)C(=O)N(c2ccc(C#N)c(C(F)(F)F)c2)C(=S)N1CCCCCCCCN1CC[C@@H](O)C1 [Example 28]
RESULT: 102

QUERY: Give the measured inhibition at 1 µM for CC(O)(CS(=O)(=O)c1ccc(F)cc1)C(=O)Nc1ccc(C#N)c(C(F)(F)F)c1 (centres unmarked) [Bicalutamide, reference compound]
RESULT: 85

QUERY: Give the measured inhibition at 1 µM for COC[C@@H]1CCCN1CCCCCCCN1C(=S)N(c2ccc(C#N)c(C(F)(F)F)c2)C(=O)C1(C)C [Example 17]
RESULT: 99

QUERY: Give the measured inhibition at 1 µM for CC1(C)C(=O)N(c2ccc(C#N)c(C(F)(F)F)c2)C(=S)N1CCCCCCCN1C2CCC1CC(O)C2 (centres unmarked) [Example 23]
RESULT: 79

QUERY: Give the measured inhibition at 1 µM for CC(C)(O)[C@@H]1CCCN1CCCCCCCCCN1C(=S)N(c2ccc(C#N)c(C(F)(F)F)c2)C(=O)C1(C)C [Example 41]
RESULT: 89

QUERY: Give the measured inhibition at 1 µM for COC[C@H]1CCCN1CCCCCCCN1C(=S)N(c2ccc(C#N)c(C(F)(F)F)c2)C(=O)C1(C)C [Example 16]
RESULT: 98

QUERY: Give the measured inhibition at 1 µM for CC1(C)C(=O)N(c2ccc(C#N)c(C(F)(F)F)c2)C(=S)N1CCCCCCCCCN1CC[C@@H](O)C1 [Example 29]
RESULT: 99

QUERY: Give the measured inhibition at 1 µM for COC[C@H]1CCCN1CCCCCCCCCN1C(=S)N(c2ccc(C#N)c(C(F)(F)F)c2)C(=O)C1(C)C [Example 20]
RESULT: 101

QUERY: Give the measured inhibition at 1 µM for CC1(C)C(=O)N(c2ccc(C#N)c(C(F)(F)F)c2)C(=S)N1CCCCCCCN1CC[C@@H](C(N)=O)C1 [Example 53]
RESULT: 97

QUERY: Give the measured inhibition at 1 µM for CC(C)(O)[C@@H]1CCCN1CCCCCCCCN1C(=S)N(c2ccc(C#N)c(C(F)(F)F)c2)C(=O)C1(C)C [Example 40]
RESULT: 118
